Examples of compounds with documented Redroot pigweed plant response rating follow.
System: pigweed
experiment.description: Test B pre/postemergence pigweed
Format: in vivo, Amaranthus retroflexus
measurement.parameters: Rate 500 g/ha, Postemergence; 0 to 10 scale (0 no effect, 10 complete control)
Give the figure only, with no unit attached.

Examples with answers:
>  <query.smiles>
CCN(CC)C(=O)n1oc(=O)n(-c2ccc(OC)cc2)c1=O

>  <Redroot pigweed plant response rating>
8

$$$$
>  <query.smiles>
Cc1ccccc1-n1c(=O)on(C(=O)N(c2ccc(Cl)cc2)C(C)C)c1=O

>  <Redroot pigweed plant response rating>
5

$$$$
>  <query.smiles>
CC(C)N(C(=O)n1oc(=O)n(-c2cc(Cl)cc(Cl)c2)c1=O)C1=CCOCC1

>  <Redroot pigweed plant response rating>
3

$$$$

Would you mind telling me what Redroot pigweed plant response rating value was observed for COc1ccc(-n2c(=O)on(C(=O)N(C3=CCOCC3)C(C)C)c2=O)cc1 ?
0

Source: patent US6737383B1
